- test-target: UniProt Q14164
- Sequence (Q14164 whole entry, looked up): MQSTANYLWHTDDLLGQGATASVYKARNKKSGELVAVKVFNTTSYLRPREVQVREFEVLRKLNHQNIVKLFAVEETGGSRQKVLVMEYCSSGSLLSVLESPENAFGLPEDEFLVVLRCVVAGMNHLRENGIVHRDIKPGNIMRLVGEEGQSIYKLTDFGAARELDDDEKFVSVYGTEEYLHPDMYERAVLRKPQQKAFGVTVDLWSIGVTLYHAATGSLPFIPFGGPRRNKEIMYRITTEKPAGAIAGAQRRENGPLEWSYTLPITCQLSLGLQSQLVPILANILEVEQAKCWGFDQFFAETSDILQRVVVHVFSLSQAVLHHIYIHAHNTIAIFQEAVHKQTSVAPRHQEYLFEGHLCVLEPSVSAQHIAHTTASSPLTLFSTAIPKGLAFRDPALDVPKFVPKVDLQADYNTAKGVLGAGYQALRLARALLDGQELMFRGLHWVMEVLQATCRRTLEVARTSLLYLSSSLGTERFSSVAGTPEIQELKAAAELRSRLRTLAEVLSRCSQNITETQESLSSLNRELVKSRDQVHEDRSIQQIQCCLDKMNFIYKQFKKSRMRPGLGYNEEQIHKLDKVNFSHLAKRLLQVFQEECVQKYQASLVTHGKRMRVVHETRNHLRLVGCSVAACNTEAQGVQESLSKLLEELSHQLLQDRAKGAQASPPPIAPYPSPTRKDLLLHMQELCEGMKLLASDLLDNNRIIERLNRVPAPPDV
- assay-notes: radiometric filter-binding kinase assay, Kinase HotSpot
- measurement-parameters: compound 0.5 µM; ATP 10 µM
Each record is given 1 if its reported residual activity is strictly below 90%. Records at or above 90% are given 0.

Quick check: residual activity of O=c1c2ccccc2[nH]c(=S)n1CCN1CCC(=C(c2ccc(F)cc2)c2ccc(F)cc2)CC1 under 90%?
0

# iterate: COc1cc2c(N3CCN(C(=O)Nc4ccc(OC(C)C)cc4)CC3)ncnc2cc1OCCCN1CCCCC1
0

# iterate: FC(F)(F)c1ccc(/C=C/c2nc(COc3ccc(CCCCn4ccnn4)cc3)co2)cc1
0

# iterate: O=C1NC(=O)c2c1c1c3ccccc3[nH]c1c1[nH]c3cc(Br)ccc3c21
1

# iterate: N#Cc1c(NC(=O)c2cccc3ccccc23)sc2c1CCCC2
0

# iterate: Nc1ncnc2c1cnn2-c1ccccc1
0

# iterate: c1ccc(-c2cnc(Nc3ccc(OCCN4CCCC4)cc3)s2)cc1
1

# iterate: O=c1c(-c2ccc(F)cc2)c(-c2ccncc2)[nH]n1-c1ccc(Cl)cc1
0

# iterate: COc1cccc(-c2cc(=O)c3ccccc3o2)c1N
0

# iterate: CCc1nc(-c2ccc(OC)cc2)[nH]c1-c1ccncc1
0

# iterate: CCOc1cc2ncnc(Nc3cccc(Br)c3)c2cc1OCC
0

# iterate: O=C(O)c1ccc2c3c1cccc3c(=O)n1c3ccccc3nc21
1

# iterate: COc1cc2c(cc1OC)-c1[nH]nc(Nc3cccc(F)c3)c1C2
0
